The values you see were collected from PubChem BioAssay.

# Assay name: reversal of MRP1-mediated doxorubicin resistance, pilot screen, H69AR cells, doxorubicin co-treatment (AID 601)
# Applied conditions: H69AR cells, CellTiter-Glo, 72 h; compound alone cytotoxicity; at 10 µM
molecules and their reported viability
Report as a plain number; the unit % is understood.

Example molecules with recorded viability:
Molecule: Cc1ccccc1-c1nc(CS(=O)(=O)CC(=O)NCc2ccccc2)c(C)o1
Unit descriptor: %
viability: 96.5
//
Molecule: CCOC(=O)c1c(NC(=O)Cn2c(C)nc3ccccc32)sc2c1CCC2
Unit descriptor: %
viability: 57.8
//
Molecule: COc1ccc(Nc2nc(Nc3ccc(OC)cc3)nc(-n3[nH]c(=O)c(C)c3C)n2)cc1
Unit descriptor: %
viability: 12.1
//
Molecule: COc1ccc2c(=O)c3c(=O)n(Cc4ccco4)c(-c4cc(OC)c(OC)c(OC)c4)nc3oc2c1
Unit descriptor: %
viability: 36.1
//
Molecule: Cc1cc(Cl)c(S(=O)(=O)Nc2ccc3c(c2)OCCO3)cc1OCC(N)=O
Unit descriptor: %
viability: 97.2
//
Molecule: COc1ccc2c(c1)C(=O)N(c1ccccc1OC)C(=O)C2
Unit descriptor: %
viability: 92.8
//
Molecule: COCC(=O)Nc1c(C(=O)Nc2ccccc2OC)oc2ccccc12
Unit descriptor: %
viability: 75.1
//
Molecule: Cc1ccc2nc3c(cc(C(=O)NCC4CCCO4)n3C)c(=O)n2c1 (stereo not given)
Unit descriptor: %
viability: 94.9

Fill in: viability of O=C(CCSc1nc(-c2ccco2)cc(C(F)(F)F)n1)NCCc1ccccc1 is ___
79

Param item: CC(=O)[C@H]1CC[C@H]2[C@@H]3CCC4=CC(=O)CC[C@]4(C)[C@H]3CC[C@]12C
47.2

----------
# Assay name: SK-BR-3 cell growth inhibitors, pilot screen, 24 h, human (AID 572);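 note: compound exposure lasted between 18 and 24 h rather than exactly 24 h; 100% = carrier-treated control wells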
# Applied conditions: SK-BR-3 viability, CellTiter-Glo luminescence, at 10 µM, stronger effect = lower value
Assay readout: viability (%)
Report as a plain number; the unit % is understood.

Compound: CCc1nnc(-n2nc(C)cc2-c2ccccc2)n1N
Measured value: 107

Compound: COCc1cc(=O)[nH]c(Nc2nc3ccccc3o2)n1
Measured value: 112

Compound: COC(=O)Cc1cc(=O)n(-c2ccccc2)[nH]1
Measured value: 95

Fill in: viability of CCCOc1ccccc1NC(=O)c1ccc(N)cc1 is ___
95

Param item: CCOC(=O)N1CCN(C(=O)COc2cc(=O)n(C)c3ccccc23)CC1
98

Param item: CCc1nc(N[C@@H](Cc2c[nH]c3ccccc23)C(=O)O)c2oc3ccccc3c2n1
100

Param item: Oc1ccc(N2CCN(C(c3ccncc3)c3nnnn3C3CCCC3)CC2)cc1 (stereo unspecified)
76

Param item: CC(=O)O[C@H]1C[C@@H]2CC[C@@H]3[C@H](CC[C@@]4(C)[C@H]3C[C@H]([N+]3(C)CCCCC3)[C@@H]4OC(C)=O)[C@@]2(C)C[C@@H]1[N+]1(C)CCCCC1
111

Param item: Cc1ccccc1OCc1nnc(SCC(=O)NCc2ccccc2)n1C
96

Param item: CC(Cc1ccc(O)c(O)c1)C(C)Cc1ccc(O)c(O)c1 (stereo unspecified)
87

Param item: CCCCNC(=O)c1nnn(-c2ccccc2)c1N
88

Param item: CCOc1cc(C2NC(=O)N(C)C(C)=C2C(=O)OC)cc(Br)c1O (stereo unspecified)
112
